Where do the numbers come from? From PubChem BioAssay AID2060505.

Tested on: 633275-114-R-J1-PDC complex spheroids, viability
method: Anticancer human tumor 633275-114-R-J1-PDC patient-derived endometrial adenocarcinoma cell line growth inhibition [GQUAD]
conditions: second compound 3.16 µM; first compound 10 µM; stronger effect = lower value
measured.quantity: viability, T/C (%)

compound: O=c1[nH]cc(F)c(=O)[nH]1 + Cc1[nH]c2ccc(F)cc2c1-c1nc2c3cccnc3c3ncccc3c2[nH]1
target.system: 633275-114-R-J1-PDC complex spheroids, viability
measured.quantity: viability, T/C
test.result: 56.9

compound: C#Cc1c(F)ccc2cc(O)cc(-c3ncc4c(N5CC6CCC(C5)N6)nc(OCC56CCCN5CC(F)C6)nc4c3F)c12 (stereo unspecified) + CN(C)c1ccc(Nc2c3ccc(NC(=O)CCN4CCCC4)cc3nc3cc(NC(=O)CCN4CCCC4)ccc23)cc1
target.system: 633275-114-R-J1-PDC complex spheroids, viability
measured.quantity: viability, T/C
test.result: 28.1

compound: O=C(c1cc(Cc2n[nH]c(=O)c3ccccc23)ccc1F)N1CCN(C(=O)C2CC2)CC1 + Cc1[nH]c2ccc(F)cc2c1-c1nc2c3cccnc3c3ncccc3c2[nH]1
target.system: 633275-114-R-J1-PDC complex spheroids, viability
measured.quantity: viability, T/C
test.result: 48.2

compound: COc1cc(C2c3cc4c(cc3C(OC3OC5COC(C)OC5C(O)C3O)C3COC(=O)C23)OCO4)cc(OC)c1O (stereo unspecified) + CN(C)c1ccc(Nc2c3ccc(NC(=O)CCN4CCCC4)cc3nc3cc(NC(=O)CCN4CCCC4)ccc23)cc1
target.system: 633275-114-R-J1-PDC complex spheroids, viability
measured.quantity: viability, T/C
test.result: 26

compound: O=C(NO)c1cnc(N2CCN(S(=O)(=O)c3ccc4ccccc4c3)CC2)nc1 + Cc1cnc(CNC(=O)c2c(=O)c3ccc(N4CCCN(C)CC4)nc3n3c2sc2ccccc23)cn1
target.system: 633275-114-R-J1-PDC complex spheroids, viability
measured.quantity: viability, T/C
test.result: 0.11

compound: COc1cccc2c1C(=O)c1c(O)c3c(c(O)c1C2=O)CC(O)(C(=O)CO)CC3OC1CC(N)C(O)C(C)O1 (stereo unspecified) + Cc1cnc(CNC(=O)c2c(=O)c3ccc(N4CCCN(C)CC4)nc3n3c2sc2ccccc23)cn1
target.system: 633275-114-R-J1-PDC complex spheroids, viability
measured.quantity: viability, T/C
test.result: 0.46

###

Attribute: IC50
Tested on: 633275-114-R-J1-PDC complex spheroids, viability
method: Anticancer human tumor 633275-114-R-J1-PDC cell line growth inhibition [GQUAD];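 further: spheroids exposed to the agents for seven days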
conditions: curve of first compound; second compound 1 µM

molecule: O=C(NO)c1cnc(N2CCN(S(=O)(=O)c3ccc4ccccc4c3)CC2)nc1 + CN(C)c1ccc(Nc2c3ccc(NC(=O)CCN4CCCC4)cc3nc3cc(NC(=O)CCN4CCCC4)ccc23)cc1
IC50: 0.158 µM
--
molecule: O=C(NO)c1cnc(N2CCN(S(=O)(=O)c3ccc4ccccc4c3)CC2)nc1 + Cc1cnc(CNC(=O)c2c(=O)c3ccc(N4CCCN(C)CC4)nc3n3c2sc2ccccc23)cn1
IC50: < 0.0316 µM
--
molecule: CCc1c2c(nc3ccc(O)cc13)-c1cc3c(c(=O)n1C2)COC(=O)[C@]3(O)CC + Cc1[nH]c2ccc(F)cc2c1-c1nc2c3cccnc3c3ncccc3c2[nH]1
IC50: 0.00227 µM

###

Tested on: 633275-114-R-J1-PDC complex spheroids, viability
method: Anticancer human tumor 633275-114-R-J1-PDC cell line growth inhibition [GQUAD];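 further: spheroids exposed to the agents for seven days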;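 on viability, T/C: percent of DMSO vehicle control viability which is 100%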
conditions: second compound 3.16 µM; first compound 10 µM; stronger effect = lower value

compound: CC(=O)O[C@H]1C(=O)[C@@]2(C)[C@H]([C@H](OC(=O)c3ccccc3)[C@]3(O)C[C@H](OC(=O)[C@H](O)[C@@H](NC(=O)c4ccccc4)c4ccccc4)C(C)=C1C3(C)C)[C@]1(OC(C)=O)CO[C@@H]1C[C@@H]2O + Cc1[nH]c2ccc(F)cc2c1-c1nc2c3cccnc3c3ncccc3c2[nH]1
target.system: 633275-114-R-J1-PDC complex spheroids, viability
viability, T/C: 17.7%
--
compound: CCCS(=O)(=O)Nc1ccc(F)c(C(=O)c2c[nH]c3ncc(-c4ccc(Cl)cc4)cc23)c1F + Cc1[nH]c2ccc(F)cc2c1-c1nc2c3cccnc3c3ncccc3c2[nH]1
target.system: 633275-114-R-J1-PDC complex spheroids, viability
viability, T/C: 41%
--
compound: COc1cccc2c1C(=O)c1c(O)c3c(c(O)c1C2=O)CC(O)(C(=O)CO)CC3OC1CC(N)C(O)C(C)O1 (stereo unspecified) + Cc1[nH]c2ccc(F)cc2c1-c1nc2c3cccnc3c3ncccc3c2[nH]1
target.system: 633275-114-R-J1-PDC complex spheroids, viability
viability, T/C: 1.41%
--
compound: CCCS(=O)(=O)Nc1ccc(F)c(C(=O)c2c[nH]c3ncc(-c4ccc(Cl)cc4)cc23)c1F + Cc1cnc(CNC(=O)c2c(=O)c3ccc(N4CCCN(C)CC4)nc3n3c2sc2ccccc23)cn1
target.system: 633275-114-R-J1-PDC complex spheroids, viability
viability, T/C: 7.26%
--
compound: CC(C)n1c(=O)n(C)c2cnc3cc(F)c(-c4ccc(OCCCN5CCCCC5)nc4)cc3c21 + CN(C)c1ccc(Nc2c3ccc(NC(=O)CCN4CCCC4)cc3nc3cc(NC(=O)CCN4CCCC4)ccc23)cc1
target.system: 633275-114-R-J1-PDC complex spheroids, viability
viability, T/C: 32.3%
--
compound: CC(C)(O)C1CCC(Nc2ccc3ncc(-c4cccc(C(F)(F)F)c4)n3n2)CC1 (stereo unspecified) + CN(C)c1ccc(Nc2c3ccc(NC(=O)CCN4CCCC4)cc3nc3cc(NC(=O)CCN4CCCC4)ccc23)cc1
target.system: 633275-114-R-J1-PDC complex spheroids, viability
viability, T/C: 20.4%
